Measured CC50 at 48 h of individual entries
Protocol Summary: Cytotoxicity against Swiss Webster mouse 2D cardiomyocytes assessed as reduction in cell viability measured after 48 hrs by PrestoBlue assay
Design: species or system Cardiac Muscle Cell
Run Conditions: read-out: LC50

{"columns": ["Compound", "Readout Units", "Comparison Sign", "CC50 at 48 h"],
 "data": [
  ["Nc1ncnc2c1cnn2[C@@H]1O[C@H](CO)[C@@H](O)[C@H]1O", "µM", ">", 500],
  ["Nc1ncnc2c1c(-c1ccc(Cl)cc1)nn2[C@@H]1O[C@H](CO)[C@@H](O)[C@H]1O", "µM", "=", 500]
]}

----------
Measured IC50 of individual entries
System: Leishmania infantum
Protocol Summary: Antileishmanial activity against amastigote form of Leishmania infantum MHOM/MA(BE)/67 infected in Swiss mouse peritoneal macrophages assessed as reduction in parasite growth treated at 2 hrs post-infection and measured after 5 days by Giemsa staining based microscopic analysis
Format: functional, organism-based
Run Conditions: MHOM/MA(BE)/67, Peritoneal macrophage

{"columns": ["Compound", "Study Target", "IC50"],
 "data": [
  ["Nc1ncnc2c1c(Cl)nn2[C@@H]1O[C@H](CO)[C@@H](O)[C@H]1O", "Leishmania infantum", "> 64 µM"],
  ["Nc1ncnc2c1c(-c1ccc(F)cc1)nn2[C@@H]1O[C@H](CO)[C@@H](O)[C@H]1O", "Leishmania infantum", "> 64 µM"],
  ["Nc1ncnc2c1c(CCc1ccccc1)nn2[C@@H]1O[C@H](CO)[C@@H](O)[C@H]1O", "Leishmania infantum", "> 64 µM"],
  ["N#Cc1ccc(-c2nn([C@@H]3O[C@H](CO)[C@@H](O)[C@H]3O)c3ncnc(N)c23)cc1", "Leishmania infantum", "> 64 µM"],
  ["CCCCCCCCCCCCCCCCOP(=O)([O-])OCC[N+](C)(C)C", "Leishmania infantum", "7.47 µM"]
]}

----------
System: Trypanosoma cruzi
Protocol Summary: Antitrypanosomal activity against nifurtimox-sensitive Trypanosoma cruzi Tulahuen CL2 infected in human MRC-5 SV2 cells assessed as inhibition of parasite growth measured after 7 days by spectrophotometric analysis
Type: functional, organism-based
Run Conditions: Tulahuen CL2, MRC-5 SV2, 168 h
Measured IC50 of individual entries
Result Type: IC50 (µM)

{"columns": ["Compound", "Result Type", "Comparison Sign", "Observed Value"],
 "data": [
  ["Nc1ncnc2c1c(Oc1ccccc1)nn2[C@@H]1O[C@H](CO)[C@@H](O)[C@H]1O", "IC50", ">", 64],
  ["CCc1nn([C@@H]2O[C@H](CO)[C@@H](O)[C@H]2O)c2ncnc(N)c12", "IC50", ">", 64],
  ["O=c1[nH]cnc2c1cnn2[C@@H]1O[C@H](CO)[C@@H](O)[C@H]1O", "IC50", "=", 7.18],
  ["O=c1[nH]cnc2c1c(Br)nn2[C@@H]1O[C@H](CO)C[C@H]1O", "IC50", ">", 64],
  ["Nc1ncnc2c1c(Cl)nn2[C@@H]1O[C@H](CO)[C@@H](O)[C@H]1O", "IC50", "=", 2.89],
  ["Nc1ncnc2c1c(-c1ccc(Cl)cc1Cl)nn2[C@@H]1O[C@H](CO)[C@@H](O)[C@H]1O", "IC50", "=", 6.06],
  ["Nc1ncnc2c1c(Br)nn2[C@@H]1O[C@H](CO)C[C@H]1O", "IC50", "=", 38.5],
  ["C=C(C)c1nn([C@@H]2O[C@H](CO)[C@@H](O)[C@H]2O)c2ncnc(N)c12", "IC50", "=", 29.5],
  ["Nc1ncnc2c1c(N1CCCC1)nn2[C@@H]1O[C@H](CO)[C@@H](O)[C@H]1O", "IC50", ">", 64]
]}

----------
Tested on: Leishmania infantum
Protocol Summary: Antileishmanial activity against amastigote form of Leishmania infantum MHOM/MA(BE)/67 infected in Swiss mouse peritoneal macrophages assessed as reduction in parasite growth treated at 2 hrs post-infection and measured after 5 days by Giemsa staining based microscopic analysis
Type: functional, organism-based
Run Conditions: MHOM/MA(BE)/67, Peritoneal macrophage
Measured IC50 of individual entries

{"columns": ["Compound", "Study Target", "IC50"],
 "data": [
  ["N#Cc1cc(-c2nn([C@@H]3O[C@H](CO)[C@@H](O)[C@H]3O)c3ncnc(N)c23)ccc1Cl", "Leishmania infantum", "> 64 µM"],
  ["Nc1ncnc2c1c(C(F)F)nn2[C@@H]1O[C@H](CO)[C@@H](O)[C@H]1O", "Leishmania infantum", "0.25 µM"],
  ["Nc1ncnc2c1c(C(=O)Nc1ccccc1)nn2[C@@H]1O[C@H](CO)[C@@H](O)[C@H]1O", "Leishmania infantum", "32.5 µM"],
  ["Nc1ncnc2c1c(Br)nn2[C@@H]1O[C@H](CO)C[C@H]1O", "Leishmania infantum", "> 64 µM"],
  ["Nc1ncnc2c1c(-c1ccc(Cl)cc1Cl)nn2[C@@H]1O[C@H](CO)[C@@H](O)[C@H]1O", "Leishmania infantum", "52.8 µM"],
  ["N#Cc1cc(-c2ccc(-c3nn([C@@H]4O[C@H](CO)[C@@H](O)[C@H]4O)c4ncnc(N)c34)cc2C#N)ccc1Cl", "Leishmania infantum", "> 64 µM"],
  ["Nc1ncnc2c1c(C1CC1)nn2[C@@H]1O[C@H](CO)[C@@H](O)[C@H]1O", "Leishmania infantum", "> 64 µM"],
  ["C#Cc1nn([C@@H]2O[C@H](CO)[C@@H](O)[C@H]2O)c2ncnc(N)c12", "Leishmania infantum", "10.4 µM"],
  ["Nc1ncnc2c1c(-c1c[nH]nn1)nn2[C@@H]1O[C@H](CO)[C@@H](O)[C@H]1O", "Leishmania infantum", "43.1 µM"],
  ["CCOc1cc(-c2nn([C@@H]3O[C@H](CO)[C@@H](O)[C@H]3O)c3ncnc(N)c23)ccc1Cl", "Leishmania infantum", "> 64 µM"],
  ["Cc1ccc(-c2nn([C@@H]3O[C@H](CO)[C@@H](O)[C@H]3O)c3ncnc(N)c23)s1", "Leishmania infantum", "≥ 32 µM"],
  ["Nc1ncnc2c1c(Br)nn2[C@H]1C[C@H](O)[C@@H](CO)O1", "Leishmania infantum", "> 64 µM"],
  ["Nc1ncnc2c1c(C#Cc1ccccc1)nn2[C@@H]1O[C@H](CO)[C@@H](O)[C@H]1O", "Leishmania infantum", "49.4 µM"],
  ["Nc1ncnc2c1c(C(=O)NCc1ccccc1)nn2[C@@H]1O[C@H](CO)[C@@H](O)[C@H]1O", "Leishmania infantum", "> 64 µM"],
  ["O=c1[nH]cnc2c1cnn2[C@@H]1O[C@H](CO)[C@@H](O)[C@H]1O", "Leishmania infantum", "6.66 µM"],
  ["CC(C)(C)c1ccc(-c2nn([C@@H]3O[C@H](CO)[C@@H](O)[C@H]3O)c3ncnc(N)c23)cc1", "Leishmania infantum", "> 64 µM"],
  ["Nc1ncnc2c1cnn2[C@@H]1O[C@H](CO)C[C@H]1O", "Leishmania infantum", "> 64 µM"],
  ["CNC(=O)c1nn([C@@H]2O[C@H](CO)[C@@H](O)[C@H]2O)c2ncnc(N)c12", "Leishmania infantum", "> 64 µM"]
]}

----------
Test system: CYP450
Protocol Summary: Metabolic stability of the compound in mouse liver microsomes S9 fraction assessed as CYP450-mediated metabolism by measuring parent compound remaining at 5 uM measured after 60 mins in presence of NADPH by UPLC-MS analysis
Type: ADME, subcellular
Run Conditions: read-out: Stabilty
Result Type: remaining at 1 h, 5 µM (%)

{"columns": ["Compound", "Result Type", "Observed Value"],
 "data": [
  ["Nc1ncnc2c1c(-c1ccc(Cl)cc1)nn2[C@@H]1O[C@H](CO)[C@@H](O)[C@H]1O", "remaining at 1 h, 5 µM", 108]
]}

----------
Protocol Summary: Cytotoxicity against human MRC-5 SV2 cells assessed as reduction in cell growth measured after 3 days by resazurin dye based fluorometric analysis
Run Conditions: time 3 day

{"columns": ["Compound", "CC50 at 72 h"],
 "data": [
  ["Nc1ncnc2c1c(-c1ccc(Cl)cc1)nn2[C@@H]1O[C@H](CO)C[C@H]1O", "> 64 µM"],
  ["Nc1ncnc2c1c(Br)nn2[C@@H]1O[C@H](CO)[C@@H](O)[C@H]1O", "> 64 µM"],
  ["Cn1cc(-c2nn([C@@H]3O[C@H](CO)[C@@H](O)[C@H]3O)c3ncnc(N)c23)cn1", "> 64 µM"],
  ["N#Cc1nn([C@@H]2O[C@H](CO)[C@@H](O)[C@H]2O)c2ncnc(N)c12", "34.6 µM"],
  ["Nc1ncnc2c1c(-c1ccc(OC(F)(F)F)cc1)nn2[C@@H]1O[C@H](CO)[C@@H](O)[C@H]1O", "> 64 µM"]
]}
